Each recorded value in this set is attributed to patent US10960087B2.

# System: human mononucleocytes (PBMC) stimulated with staphylococcal enterotoxin B (SEB)
# ASSAY NOTES: cells
# Format: cell-based
# CONDITION SET: read-out: EC50 Cytokine Release IL-4
pEC50: −log10 of the molar value.
REPORTED METRIC: pEC50

Task: Entry under review: O=C(NC(Cc1cc(=O)[nH]c2ccccc12)C(=O)O)c1ccc(Cl)cc1 (stereo not shown) [Rebamipide] . Reported pEC50?
Output: < 3.00

###

# Test system: human mononucleocytes (PBMC) stimulated with staphylococcal enterotoxin B (SEB)
# ASSAY NOTES: cells
# Type: cell-based
# CONDITION SET: read-out: EC50 Cytokine Release IL-1α
pEC50: −log10 of the molar value.
REPORTED METRIC: pEC50

Task: What value of pEC50 on human mononucleocytes (PBMC) stimulated with staphylococcal enterotoxin B (SEB) does O=C(NC(Cc1cc(=O)[nH]c2ccccc12)C(=O)O)c1ccc(Cl)cc1 (stereo not shown) [Rebamipide] have?
Output: < 3.00
